Test: Unbound fraction in mouse plasma at 1 uM incubated for 5 hrs by equilibrium dialysis method
Format: ADME, cell-free
Measure: fraction unbound at 5 h, 1 µM
One number for each entry.

Answer with the recorded fraction unbound at 5 h, 1 µM of `CO[C@@H]1[C@@H](n2cc(-c3csc(O)n3)nn2)[C@@H](O)[C@@H](CO)O[C@@H]1Sc1ccc(Cl)c(Cl)c1` only.
0.007

----------
Target: Galectin-3 (Mus musculus, UniProt P16110)
Sequence (P16110 whole entry): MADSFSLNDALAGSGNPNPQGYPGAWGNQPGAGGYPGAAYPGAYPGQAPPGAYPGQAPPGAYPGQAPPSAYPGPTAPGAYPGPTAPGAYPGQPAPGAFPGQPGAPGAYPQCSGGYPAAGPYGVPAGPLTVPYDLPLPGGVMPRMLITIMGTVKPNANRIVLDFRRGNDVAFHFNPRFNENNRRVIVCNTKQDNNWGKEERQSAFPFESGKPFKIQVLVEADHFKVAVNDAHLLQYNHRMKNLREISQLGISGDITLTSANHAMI
Test: Binding affinity to CM3 chip-immobilized full-length mouse galectin-3 assessed as dissociation constant by SPR analysis
Measure: Kd (µM)
Give bare numbers, in µM.

Annotate the compound `CO[C@@H]1[C@@H](n2cc(-c3csc(O)n3)nn2)[C@@H](O)[C@@H](CO)O[C@@H]1Sc1ccc(Cl)c(Cl)c1` with its measured Kd.
8.2

Data origin: ChEMBL document CHEMBL5500389
